SYSTEM TESTED: ETS1 (UniProt P14921)
Sequence: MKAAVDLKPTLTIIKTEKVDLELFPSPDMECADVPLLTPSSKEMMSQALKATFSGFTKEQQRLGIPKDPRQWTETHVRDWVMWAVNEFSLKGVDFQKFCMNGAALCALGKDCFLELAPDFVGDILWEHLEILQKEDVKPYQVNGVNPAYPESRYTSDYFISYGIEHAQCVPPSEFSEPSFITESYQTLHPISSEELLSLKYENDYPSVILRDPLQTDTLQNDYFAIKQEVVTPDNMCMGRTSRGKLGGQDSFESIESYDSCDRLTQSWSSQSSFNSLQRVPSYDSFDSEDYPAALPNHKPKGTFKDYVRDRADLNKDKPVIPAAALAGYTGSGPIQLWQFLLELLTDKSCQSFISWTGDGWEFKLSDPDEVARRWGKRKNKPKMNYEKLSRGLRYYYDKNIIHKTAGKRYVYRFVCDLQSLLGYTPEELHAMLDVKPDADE
TEST NAME: ETS1 binding intensity (PBM fluorescence), ETS1 alone (arbitrary fluorescence units); higher = stronger binding
CONDITIONS: ETS1 concentration 1 nM; RUNX1 concentration 0 nM
For each of the sequences below, state its ETS1 binding intensity.

{"QUERY SEQUENCE": "GTTTAACAGGAAACCCTGCAGACCACAGGTTCTGTC", "ETS1 binding intensity": 1220}
{"QUERY SEQUENCE": "CCCGGCCACTTCCGCCTATTGCGGGCGTCGGCTAGG", "ETS1 binding intensity": 1440}
{"QUERY SEQUENCE": "TGTGCTTTGTAGTGAGGATGTGGGTGCCTGCCTCAC", "ETS1 binding intensity": 797}
{"QUERY SEQUENCE": "CAGAGGCCCGGCCTCTTCCGCCACAACTCCGGCCCG", "ETS1 binding intensity": 492}
{"QUERY SEQUENCE": "ACACAGGAAGGACGCACGCTCCCGCCCCAACCACAT", "ETS1 binding intensity": 690}
{"QUERY SEQUENCE": "GCATGTTCAAAAGGATGTGGGTGCTTACCTAGTGCC", "ETS1 binding intensity": 956}

Look up ETS1 binding intensity for the entries below, preserving their order.
1. GTTTGAAGGGAAGTGGGTGTTGACCTGCGGGCAACT
2. TGAGCTCAGGCCGGAAGCGGTGGATGATGGCACACA
3. TCGCACCGGAACCCCTTGGCGGATTATGTGGGTTCC
4. CAAGAATGAGAAAGGAAGCTGGCGGTTGGGCAGGTG
5. GCGCCCCGTCCTTCCGCAGCCCAACCGCCTCTTCCC
6. TGCGCCGCTTCCGCTGCCCGAGGAAGAGCCGCAGTC
7. ATTTTTCCTTCCTTCTCCCGTCCCCGCAGAGTGCAA
8. TGACTAAGACCGGAAGAAACCACAAAAACACAAAAA

*A*
1. 483
2. 9910
3. 659
4. 890
5. 476
6. 1090
7. 507
8. 2580

* * *

SYSTEM TESTED: RUNX1 (UniProt Q01196)
Sequence (Q01196 whole entry): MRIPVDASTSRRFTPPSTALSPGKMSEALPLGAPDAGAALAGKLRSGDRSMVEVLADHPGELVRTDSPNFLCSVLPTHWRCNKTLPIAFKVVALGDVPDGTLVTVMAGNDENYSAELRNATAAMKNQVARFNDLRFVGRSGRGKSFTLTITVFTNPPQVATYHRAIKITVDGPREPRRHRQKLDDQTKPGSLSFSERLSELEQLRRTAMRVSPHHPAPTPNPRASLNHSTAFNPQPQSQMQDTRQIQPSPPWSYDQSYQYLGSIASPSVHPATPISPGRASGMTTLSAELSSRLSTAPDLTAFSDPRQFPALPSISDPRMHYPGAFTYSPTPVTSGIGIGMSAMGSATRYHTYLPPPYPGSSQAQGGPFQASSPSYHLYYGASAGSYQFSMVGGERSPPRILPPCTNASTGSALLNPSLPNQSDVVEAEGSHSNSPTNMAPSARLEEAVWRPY
TEST NAME: RUNX1 binding intensity (PBM fluorescence), RUNX1 alone (arbitrary fluorescence units); higher = stronger binding
CONDITIONS: RUNX1 concentration 2 nM; ETS1 concentration 0 nM
Each entry belongs to exactly one class, chosen by where its RUNX1 binding intensity falls: bottom end (below 800), midrange (800 to below 900), top end (900 or more)

{"QUERY SEQUENCE": "ACACCTCAGGCAGGATGTGGTAGGGGTTGCCCCAGA", "CLASS ASSIGNMENT": "top end"}

*Q* Lab note: which band did `CGGTGGCTTCCGGCCCATGGCGGTGGTTGGTGACTC` land in?
*A* bottom end

*Q* // next record `CCCGCTCACGCCGGAAGTGGTTTGCGTTTTCAAGAT`
*A* bottom end

*Q* // next record `GTAAAAGAGGAAGTAACACCTCCTTGCGGTTGAGAC`
*A* top end

*Q* // next record `GTCCTCTTCCTGTCCCCCAGGTGGGCATGTGGTTTG`
*A* top end

* * *

For each of the sequences below, state its TF binding intensity.
SYSTEM TESTED: ETS1 (UniProt P14921)
Sequence: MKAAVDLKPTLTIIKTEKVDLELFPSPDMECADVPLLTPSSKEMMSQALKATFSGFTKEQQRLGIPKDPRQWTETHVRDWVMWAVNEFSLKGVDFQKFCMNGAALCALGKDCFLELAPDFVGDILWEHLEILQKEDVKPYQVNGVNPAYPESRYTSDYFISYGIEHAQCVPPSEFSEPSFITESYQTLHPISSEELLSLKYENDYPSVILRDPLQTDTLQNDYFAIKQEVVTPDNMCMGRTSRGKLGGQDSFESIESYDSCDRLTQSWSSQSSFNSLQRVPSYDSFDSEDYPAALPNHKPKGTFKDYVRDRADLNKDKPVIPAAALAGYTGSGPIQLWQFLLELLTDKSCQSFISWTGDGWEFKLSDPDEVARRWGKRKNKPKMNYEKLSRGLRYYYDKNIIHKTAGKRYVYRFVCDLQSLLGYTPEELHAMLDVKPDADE
TEST NAME: TF binding intensity (PBM fluorescence), negative control probe (arbitrary fluorescence units); higher = stronger binding
One number for each entry.

{"QUERY SEQUENCE": "TTTTTCTTTTAATTTTTCTTTTTTATTCTATTTTTT (protein concentration 10 nM)", "TF binding intensity": 117}
{"QUERY SEQUENCE": "GAAGCAAGGATAATTAACTTCTACCAGTGATCCCCA (protein concentration 10 nM)", "TF binding intensity": 124}
{"QUERY SEQUENCE": "ATGGCATACTAAGTAGCCACAACATGCAAGATGGAC (protein concentration 1 nM)", "TF binding intensity": 440}

*Q* Query: TF binding intensity; subject: ACTCATTAGCAGTGAGCCACAAAGACTCTCTGGAAG (protein concentration 1 nM)
*A* 359

* * *

SYSTEM TESTED: RUNX1 (UniProt Q01196)
TEST NAME: RUNX1 binding intensity (PBM fluorescence), RUNX1 alone (arbitrary fluorescence units); higher = stronger binding
CONDITIONS: RUNX1 concentration 2 nM; ETS1 concentration 0 nM
QUANTITY MEASURED: RUNX1 binding intensity
Answers are plain numbers.

Some solved cases for reference:
{"QUERY SEQUENCE": "CTGCTGACCAAAACAGGATGTGGTCTACACAAAGTG", "RUNX1 binding intensity": 800}
{"QUERY SEQUENCE": "GCTTCTTCCGGCCGGGCCGAGAGGTGGTTACATTCG", "RUNX1 binding intensity": 792}
{"QUERY SEQUENCE": "CTGAAAAACCGGAAGTGGGTGGTTTGAAACGTAAAT", "RUNX1 binding intensity": 776}

Look up RUNX1 binding intensity for the entries below, preserving their order.
1. ACCATATCCTGAGAATGAACCATGTGGTGGATGCAC
2. CCCCTCCCTGCTTCCTGTGTGGTGAGGGGTGATCAG
3. GTTTGAAGGGAAGTGGGTGTTGACCTGCGGGCAACT

*A*
795
782
806

* * *

SYSTEM TESTED: ETS1 (UniProt P14921)
Sequence: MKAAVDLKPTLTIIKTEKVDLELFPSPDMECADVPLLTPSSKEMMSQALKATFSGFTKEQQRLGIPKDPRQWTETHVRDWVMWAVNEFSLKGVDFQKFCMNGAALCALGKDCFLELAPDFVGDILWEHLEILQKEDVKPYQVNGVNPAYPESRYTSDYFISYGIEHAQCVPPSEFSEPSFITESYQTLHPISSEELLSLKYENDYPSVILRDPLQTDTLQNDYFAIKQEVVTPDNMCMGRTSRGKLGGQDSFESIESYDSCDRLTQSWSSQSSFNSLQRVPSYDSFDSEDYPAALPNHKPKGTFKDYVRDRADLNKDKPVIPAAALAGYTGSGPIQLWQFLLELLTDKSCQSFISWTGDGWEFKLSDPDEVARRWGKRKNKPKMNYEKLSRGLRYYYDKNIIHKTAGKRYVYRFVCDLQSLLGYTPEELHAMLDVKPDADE
TEST NAME: ETS1 binding intensity (PBM fluorescence), ETS1 alone (arbitrary fluorescence units); higher = stronger binding
CONDITIONS: ETS1 concentration 1 nM; RUNX1 concentration 0 nM
Returns 1 (yes) if the recorded ETS1 binding intensity is greater than or equal to 600, and 0 (no) otherwise.

{"QUERY SEQUENCE": "CCTCCTCCAGACCATCCTGGAAACCACTGCCGTTCT", "CLASS ASSIGNMENT": "0 (no)"}

*Q* Is it the case that `AGCTCCCCTCCCCGGAAACTTGACCACCTAGCCCAG` has ETS1 binding intensity reaching or exceeding 600?
*A* 1 (yes)

*Q* // next record `CGGGCGAGCGCAGGATGCGGTTGTCGAACGCGCGGC`
*A* 1 (yes)

*Q* // next record `GTGCAGACAGGAAATAGCTGCTCTGCGGCAGCCCGA`
*A* 1 (yes)

*Q* // next record `AGGCCGCTTCCTCCCACATGAAACCGCAGGCTTCGG`
*A* 0 (no)

*Q* // next record `AAGGCGGTACTTCCTCCAGCATTTGCCGCAAGTTAT`
*A* 0 (no)

*Q* // next record `CCTCTTGGTTTCCTGTCCCTCACCACAAGAAGCAGT`
*A* 1 (yes)
